biological target: Calmodulin-1 (Homo sapiens); assay: CALM1 binders on microarrays, EGTA buffer, profiling panel, biochemical, small-molecule microarray, Cy5-labelled CALM1 (AID 1111); conditions: Cy5-CALM1 binding fluorescence, higher = more signal;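 note: labelled calmodulin applied in Tris saline Tween buffer holding calcium plus EGTA and DTT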
Task for the reader: assign each of the following compounds its reported composite z-score.
Could you respond with only the numeric value?

Entry under review: `COCCOC(=O)N1C(=O)[C@@]2(c3cc(C#CC4(O)CCCCCC4)ccc31)[C@H](c1ccc(O)cc1)N1[C@H](c3ccccc3)[C@H](c3ccccc3)OC(=O)[C@H]1[C@@H]2C(=O)NC[C@H](O)c1ccccc1` . Reported composite z-score?
0.896

Entry under review: `COCCOC(=O)N1C(=O)[C@@]2(c3cc(C#Cc4ccc(OC)cc4)ccc31)[C@H](c1ccc(O)cc1)N1[C@H](c3ccccc3)[C@H](c3ccccc3)OC(=O)[C@H]1[C@@H]2C(=O)N1CCCCCCC1` . Reported composite z-score?
1.54

Entry under review: `CCCNC(=O)[C@@H]1c2ccccc2C(=O)N(C(C)C)[C@H]1c1ccc(CO)cc1` . Reported composite z-score?
-0.193

Entry under review: CC(C)(C)N1CC=CC23O[C@@H]4C=CCOC(=O)[C@@H]4[C@H]2C(=O)N(CCCCCCO)[C@@H]3C1=O (stereo partly specified) . Reported composite z-score?
-0.243

Entry under review: `C=C(/C(=C/C[C@H](OC(=O)c1ccncc1)c1ccc(CO)o1)c1cc(C(=O)OC)ccc1OC)C(C)C` . Reported composite z-score?
-0.0383

Entry under review: `CCOC(=O)C1=CC[C@@H](c2cccc(Cl)c2)N(S(=O)(=O)c2ccc(C)cc2)C1` . Reported composite z-score?
1.06

* * *

Task for the reader: assign each of the following compounds its reported z-score.
assay: inhibitors of hydroxyurea-induced Chk1 phosphorylation, primary screen, imaging, HeLa, phospho-Chk1 nuclear intensity (AID 1187); conditions: hydroxyurea-induced phospho-Chk1 immunofluorescence imaging, higher = more signal; note: test concentration not given here
Could you respond with only the numeric value?

Entry under review: O=C1NC(=O)C2C1C=CC(C(O)c1ccco1)N2Nc1ccccn1 (stereo unspecified) . Reported z-score?
-0.0488

Entry under review: `CCOC(=O)C[C@H]1[C@H](OC(=O)Cc2ccc3c(c2)OCO3)[C@@H](NC(=O)CC(C)C)c2cc(OCCCO)ccc2N1C(=O)Cc1ccc(OC)cc1` . Reported z-score?
-0.401

Entry under review: `CC(C)C[C@@H]1NC(=O)[C@@H]2C[C@H](C(=O)NCCCCCN)[C@H](c3ccc(O)cc3)N2C1=O` . Reported z-score?
0.0212

Entry under review: `O=C(CS)NCCCCCNC(=O)[C@@H]1C[C@@H]2C(=O)N3CCC[C@H]3C(=O)N2[C@@H]1c1cccc(OCCO)c1` . Reported z-score?
0.575

Entry under review: `O=C(CS)NCCCCCCNC(=O)[C@H]1C[C@H]2C(=O)N[C@@H](Cc3ccccc3)C(=O)N2[C@H]1c1ccc(O)cc1` . Reported z-score?
-0.555

Entry under review: `COc1ccccc1CN1C(=O)c2ccccc2[C@@]2(Cc3ccccc3N(CC(F)(F)F)C2=O)[C@@H]1c1ccc(CO)cc1` . Reported z-score?
0.312

Entry under review: `COC(=O)Cn1c(C(=O)N(C)C)cc2c1C[C@H]1CN(C(=O)c3ccccc3)[C@@](Cc3ccc(F)cc3)(C(=O)OC)[C@@H]21` . Reported z-score?
1.08

Entry under review: O=C1OCCC=C[C@H]2OC34C=CCN(Cn5nnc6ccccc65)C(=O)[C@H]3N(CCCCCCO)C(=O)[C@@H]4C12 (stereo partly specified) . Reported z-score?
-0.21

Entry under review: COc1cc(OC)c(C(O)C2C=CC3C(=O)N(c4ccccc4)C(=O)C3N2Nc2ccccc2)cc1Br (stereo unspecified) . Reported z-score?
-0.747

Entry under review: `O=C1O[C@H](c2ccccc2)[C@H](c2ccccc2)N2[C@H]1[C@@H](C(=O)N1CCN(c3ncccn3)CC1)[C@]1(C(=O)Nc3ccc(C#CC4(O)CCCCCC4)cc31)[C@H]2c1ccc(OCCO)cc1` . Reported z-score?
0.527

Entry under review: `C=C(COC)C(=O)CC[C@@H](OC(=O)c1cccnc1)c1ccc(OCCO)cc1` . Reported z-score?
-0.573
